Reference source for all entries: BigSolDB 2.1

- condition parameters: in isobutyl acetate, 298.15 K
recorded metric: solubility (mole fraction)

Req: For c1ccc2c(c1)Cc1ccccc1-2 , write its solubility (mole fraction).
Resp: 0.0914

====

- condition parameters: in acetone, 283.15 K
recorded metric: solubility (mole fraction)
Answers are plain numbers.

Req: For c1ccc2c(c1)Cc1ccccc1-2 , write its solubility (mole fraction).
Resp: 0.0406

====

- condition parameters: in acetone, 303.15 K
recorded metric: solubility (mole fraction)
Give bare numbers.

Req: For c1ccc2c(c1)Cc1ccccc1-2 , write its solubility (mole fraction).
Resp: 0.0779

====

- condition parameters: in isobutyl acetate, 293.15 K
recorded metric: solubility (mole fraction)

Req: For c1ccc2c(c1)Cc1ccccc1-2 , write its solubility (mole fraction).
Resp: 0.0816

====

- condition parameters: in acetonitrile, 283.15 K
recorded metric: solubility (mole fraction)
Answers are plain numbers.

Req: For c1ccc2c(c1)Cc1ccccc1-2 , write its solubility (mole fraction).
Resp: 0.0113

====

- condition parameters: in isopropyl acetate, 278.15 K
recorded metric: solubility (mole fraction)
Numbers only.

Req: For c1ccc2c(c1)Cc1ccccc1-2 , write its solubility (mole fraction).
Resp: 0.044

====

- condition parameters: in n-propyl acetate, 318.15 K
recorded metric: solubility (mole fraction)
Give bare numbers.

Req: For c1ccc2c(c1)Cc1ccccc1-2 , write its solubility (mole fraction).
Resp: 0.176

====

- condition parameters: in ethyl acetate, 318.15 K
recorded metric: solubility (mole fraction)
Numbers only.

Req: For c1ccc2c(c1)Cc1ccccc1-2 , write its solubility (mole fraction).
Resp: 0.163

====

- condition parameters: in n-propanol, 313.15 K
recorded metric: solubility (mole fraction)
Give bare numbers.

Req: For c1ccc2c(c1)Cc1ccccc1-2 , write its solubility (mole fraction).
Resp: 0.0186

====

- condition parameters: in THF, 293.15 K
recorded metric: solubility (mole fraction)
Numbers only.

Req: For c1ccc2c(c1)Cc1ccccc1-2 , write its solubility (mole fraction).
Resp: 0.163

====

- condition parameters: in acetonitrile, 318.15 K
recorded metric: solubility (mole fraction)
One number for each entry.

Req: For c1ccc2c(c1)Cc1ccccc1-2 , write its solubility (mole fraction).
Resp: 0.0406

====

- condition parameters: in n-propyl acetate, 303.15 K
recorded metric: solubility (mole fraction)

Req: For c1ccc2c(c1)Cc1ccccc1-2 , write its solubility (mole fraction).
Resp: 0.108

====

- condition parameters: in isobutyl acetate, 288.15 K
recorded metric: solubility (mole fraction)
One number for each entry.

Req: For c1ccc2c(c1)Cc1ccccc1-2 , write its solubility (mole fraction).
Resp: 0.0718

====

- condition parameters: in ethyl acetate, 288.15 K
recorded metric: solubility (mole fraction)

Req: For c1ccc2c(c1)Cc1ccccc1-2 , write its solubility (mole fraction).
Resp: 0.062

====

- condition parameters: in isobutyl acetate, 303.15 K
recorded metric: solubility (mole fraction)

Req: For c1ccc2c(c1)Cc1ccccc1-2 , write its solubility (mole fraction).
Resp: 0.104

====

- condition parameters: in acetone, 318.15 K
recorded metric: solubility (mole fraction)
Give bare numbers.

Req: For c1ccc2c(c1)Cc1ccccc1-2 , write its solubility (mole fraction).
Resp: 0.126

====

- condition parameters: in n-butyl acetate, 303.15 K
recorded metric: solubility (mole fraction)
One number for each entry.

Req: For c1ccc2c(c1)Cc1ccccc1-2 , write its solubility (mole fraction).
Resp: 0.121

====

- condition parameters: in acetone, 288.15 K
recorded metric: solubility (mole fraction)
Give bare numbers.

Req: For c1ccc2c(c1)Cc1ccccc1-2 , write its solubility (mole fraction).
Resp: 0.0482

====

- condition parameters: in n-propanol, 283.15 K
recorded metric: solubility (mole fraction)
Give bare numbers.

Req: For c1ccc2c(c1)Cc1ccccc1-2 , write its solubility (mole fraction).
Resp: 0.00612

====

- condition parameters: in ethanol, 318.15 K
recorded metric: solubility (mole fraction)
One number for each entry.

Req: For c1ccc2c(c1)Cc1ccccc1-2 , write its solubility (mole fraction).
Resp: 0.0154

====

- condition parameters: in THF, 303.15 K
recorded metric: solubility (mole fraction)
Answers are plain numbers.

Req: For c1ccc2c(c1)Cc1ccccc1-2 , write its solubility (mole fraction).
Resp: 0.2

====

- condition parameters: in methanol, 283.15 K
recorded metric: solubility (mole fraction)
One number for each entry.

Req: For c1ccc2c(c1)Cc1ccccc1-2 , write its solubility (mole fraction).
Resp: 0.00235

====

- condition parameters: in n-propanol, 293.15 K
recorded metric: solubility (mole fraction)
Answers are plain numbers.

Req: For c1ccc2c(c1)Cc1ccccc1-2 , write its solubility (mole fraction).
Resp: 0.009

====

- condition parameters: in acetone, 278.15 K
recorded metric: solubility (mole fraction)
One number for each entry.

Req: For c1ccc2c(c1)Cc1ccccc1-2 , write its solubility (mole fraction).
Resp: 0.0353

====

- condition parameters: in n-propyl acetate, 313.15 K
recorded metric: solubility (mole fraction)
Give bare numbers.

Req: For c1ccc2c(c1)Cc1ccccc1-2 , write its solubility (mole fraction).
Resp: 0.153

====

- condition parameters: in n-butyl acetate, 278.15 K
recorded metric: solubility (mole fraction)
Answers are plain numbers.

Req: For c1ccc2c(c1)Cc1ccccc1-2 , write its solubility (mole fraction).
Resp: 0.0693

====

- condition parameters: in acetonitrile, 308.15 K
recorded metric: solubility (mole fraction)
Numbers only.

Req: For c1ccc2c(c1)Cc1ccccc1-2 , write its solubility (mole fraction).
Resp: 0.0288

====

- condition parameters: in isobutyl acetate, 318.15 K
recorded metric: solubility (mole fraction)
One number for each entry.

Req: For c1ccc2c(c1)Cc1ccccc1-2 , write its solubility (mole fraction).
Resp: 0.162

====

- condition parameters: in n-butyl acetate, 313.15 K
recorded metric: solubility (mole fraction)
One number for each entry.

Req: For c1ccc2c(c1)Cc1ccccc1-2 , write its solubility (mole fraction).
Resp: 0.167

====

- condition parameters: in THF, 313.15 K
recorded metric: solubility (mole fraction)
Numbers only.

Req: For c1ccc2c(c1)Cc1ccccc1-2 , write its solubility (mole fraction).
Resp: 0.248

====

- condition parameters: in n-propyl acetate, 278.15 K
recorded metric: solubility (mole fraction)
Give bare numbers.

Req: For c1ccc2c(c1)Cc1ccccc1-2 , write its solubility (mole fraction).
Resp: 0.0596

====

- condition parameters: in ethanol, 283.15 K
recorded metric: solubility (mole fraction)

Req: For c1ccc2c(c1)Cc1ccccc1-2 , write its solubility (mole fraction).
Resp: 0.00448

====

- condition parameters: in n-propanol, 298.15 K
recorded metric: solubility (mole fraction)
Answers are plain numbers.

Req: For c1ccc2c(c1)Cc1ccccc1-2 , write its solubility (mole fraction).
Resp: 0.0112

====

- condition parameters: in isopropanol, 278.15 K
recorded metric: solubility (mole fraction)
One number for each entry.

Req: For c1ccc2c(c1)Cc1ccccc1-2 , write its solubility (mole fraction).
Resp: 0.00401

====

- condition parameters: in isopropyl acetate, 283.15 K
recorded metric: solubility (mole fraction)
Numbers only.

Req: For c1ccc2c(c1)Cc1ccccc1-2 , write its solubility (mole fraction).
Resp: 0.0504

====

- condition parameters: in acetone, 293.15 K
recorded metric: solubility (mole fraction)
Numbers only.

Req: For c1ccc2c(c1)Cc1ccccc1-2 , write its solubility (mole fraction).
Resp: 0.0567

====

- condition parameters: in methyl acetate, 283.15 K
recorded metric: solubility (mole fraction)
Numbers only.

Req: For c1ccc2c(c1)Cc1ccccc1-2 , write its solubility (mole fraction).
Resp: 0.0422

====

- condition parameters: in isopropyl acetate, 293.15 K
recorded metric: solubility (mole fraction)
Numbers only.

Req: For c1ccc2c(c1)Cc1ccccc1-2 , write its solubility (mole fraction).
Resp: 0.0695

====

- condition parameters: in ethanol, 278.15 K
recorded metric: solubility (mole fraction)
Answers are plain numbers.

Req: For c1ccc2c(c1)Cc1ccccc1-2 , write its solubility (mole fraction).
Resp: 0.0038

====

- condition parameters: in methyl acetate, 318.15 K
recorded metric: solubility (mole fraction)
Give bare numbers.

Req: For c1ccc2c(c1)Cc1ccccc1-2 , write its solubility (mole fraction).
Resp: 0.142

====

- condition parameters: in ethyl acetate, 283.15 K
recorded metric: solubility (mole fraction)
Answers are plain numbers.

Req: For c1ccc2c(c1)Cc1ccccc1-2 , write its solubility (mole fraction).
Resp: 0.0542

====

- condition parameters: in acetonitrile, 288.15 K
recorded metric: solubility (mole fraction)
Give bare numbers.

Req: For c1ccc2c(c1)Cc1ccccc1-2 , write its solubility (mole fraction).
Resp: 0.0138

====

- condition parameters: in THF, 288.15 K
recorded metric: solubility (mole fraction)
Answers are plain numbers.

Req: For c1ccc2c(c1)Cc1ccccc1-2 , write its solubility (mole fraction).
Resp: 0.148

====

- condition parameters: in n-propyl acetate, 288.15 K
recorded metric: solubility (mole fraction)
Give bare numbers.

Req: For c1ccc2c(c1)Cc1ccccc1-2 , write its solubility (mole fraction).
Resp: 0.0763
